Test system: OVCAR-4 ovarian
Experiment: NCI-60 one-dose screen, 48 h (100 = growth as untreated, 0 = no growth, -100 = all killed)
Settings: 10 µM unless noted
The panel holds about 83,000 compounds, 20% with a hit somewhere; the sample as a whole holds those more often.
The threshold is 50%. Values of growth beneath it are tagged criterion met; values meeting or exceeding it are tagged criterion not met.

(Q) Identify whether the molecule "COc1ccc(-c2c(-c3nc4ccc(N5CCOCC5)cc4[nH]3)[nH]c(C)c2C(C)=O)cc1" records growth below 50%.
(A) criterion met

(Q) Identify whether the molecule "CCN1CCN(C(=O)[C@]23CCC(C)(C)C[C@H]2C2=CC[C@@H]4[C@@]5(C)CC/C(=N/O)C(C)(C)[C@@H]5CC[C@@]4(C)[C@]2(C)CC3)CC1" records growth below 50%.
(A) criterion met

(Q) Identify whether the molecule "O=P(O)(c1ccccc1)c1ccccc1I" records growth below 50%.
(A) criterion not met

(Q) Identify whether the molecule "COc1ccc2c(c1)C/C(=C\c1cc(-c3cc(OC)c(OC)c(OC)c3)n[nH]1)C2=O" records growth below 50%.
(A) criterion not met

(Q) Identify whether the molecule "COc1ccc2c(c1)c(-c1nc(-c3c[nH]c4ncccc34)cs1)cn2CCN" records growth below 50%.
(A) criterion not met

(Q) Identify whether the molecule "CC(C)/C=C/CC[C@](C)(O)[C@H]1CC[C@]2(C)[C@@H]1CC[C@@H]1[C@@]3(C)C/C(=C/c4cccc(C(F)(F)F)c4)C(=O)C(C)(C)[C@@H]3CC[C@]12C" records growth below 50%.
(A) criterion not met

(Q) Identify whether the molecule "Cn1cc(-c2csc(-c3cn(CCN)c4ccc(F)cc34)n2)c2cccnc21" records growth below 50%.
(A) criterion not met

(Q) Identify whether the molecule "c1ccc2[nH]c(-c3ccc(Nc4nc(N5CCCCC5)nc(N5CCOCC5)n4)cc3)nc2c1" records growth below 50%.
(A) criterion not met

###

Tested on: U251 CNS
Assay: NCI-60 one-dose screen, 48 h (100 = growth as untreated, 0 = no growth, -100 = all killed)
Settings: 10 µM unless noted
Compounds without any hit were thinned out: in the full panel of roughly 83,000, 20% have a hit. Calls of active or inactive are those of the source. How the source made its calls: active means growth percent below 10; inactive means the rest.
Kindly state growth for each of the entries shown.

(Q) Request the reported growth associated with "Fc1ccc2[nH]cc(-c3nc(-c4c[nH]c5ncccc45)cs3)c2c1"
(A) 43.6% (inactive)

(Q) Request the reported growth associated with CC(CNc1nc(Nc2ccc(Cl)c(Cl)c2)nc(C(Cl)(Cl)Cl)n1)N(C)C (stereo unspecified)
(A) -82.6% (active)

(Q) Request the reported growth associated with "Cc1cc(Nc2ccc(F)cc2)nc(N2CCN(c3ccnc4cc(Cl)ccc34)CC2)n1"
(A) 26.4% (inactive)

(Q) Request the reported growth associated with "C#Cc1cc2c(N)c(C(=O)c3cc(OC)c(OC)c(OC)c3)[nH]c2cc1OC"
(A) 34% (inactive)

(Q) Request the reported growth associated with Cc1ccc(C)c2c1CCC2C(C)C (stereo unspecified)
(A) 96.7% (inactive)

(Q) Request the reported growth associated with Nc1nc(Br)nc2c1ncn2C1CC(O)C(CO)O1 (stereo unspecified)
(A) 68.7% (inactive)

(Q) Request the reported growth associated with "COc1ccc(-c2cc(/C=C/C(=O)c3ccc(OC)c(OC)c3)[nH]n2)cc1"
(A) 4.42% (active)

(Q) Request the reported growth associated with "Oc1ccccc1/C=N\NC(=S)Nc1ccc(F)cc1"
(A) 27.7% (inactive)

(Q) Request the reported growth associated with "Cc1nnc2nc(N)[nH]n2c1=O"
(A) 99% (inactive)

(Q) Request the reported growth associated with "CCOC(=O)C/C(=C\c1ccccc1)C(C)=O"
(A) 80.4% (inactive)

(Q) Request the reported growth associated with "COc1ccc(C2(Cl)c3ccccc3N(c3ccccc3)c3ccccc32)cc1"
(A) -87.5% (active)

(Q) Request the reported growth associated with "Cc1cc2nc3c4cc(N)ccc4n(CCN(C)C)c3nc2cc1C"
(A) 16.2% (inactive)

(Q) Request the reported growth associated with "O=c1[nH]ncc(Br)c1Br"
(A) 30.9% (inactive)

(Q) Request the reported growth associated with "COc1ccccc1-n1cnc(N)c1C(=O)c1cc(OC)c(OC)c(OC)c1"
(A) 36.8% (inactive)

(Q) Request the reported growth associated with "Cc1ccncc1C(=O)O"
(A) 97.2% (inactive)

(Q) Request the reported growth associated with "COc1ccc(C(=O)/C=C/c2cc(-c3cc(OC)c(OC)c(OC)c3)n[nH]2)cc1OC"
(A) -85.5% (active)

(Q) Request the reported growth associated with "Cc1cc(N2CCCC2)nc(N(CCNc2ccnc3cc(Cl)ccc23)Cc2ccco2)n1"
(A) 46.5% (inactive)

(Q) Request the reported growth associated with "O=c1[nH]c2c3ccncc3cc(-c3cccc(Cl)c3)c2c2cnccc12"
(A) 13.4% (inactive)

(Q) Request the reported growth associated with "COc1cc(/C=N/Nc2ncnc3c2c(C)nn3-c2ccc(F)cc2)ccc1O"
(A) 94.4% (inactive)

(Q) Request the reported growth associated with "C=C(C)[C@@H]1CC[C@]2(C)[C@H](CC=C3[C@@H]4CC(C)(C)CC[C@]4(C=O)CC[C@]32C)[C@@]1(C)CCCN"
(A) 69.6% (inactive)

(Q) Request the reported growth associated with "Cc1ccc(Sc2sc(-c3ccccc3)nc2[P+](c2ccccc2)(c2ccccc2)c2ccccc2)cc1"
(A) 13.8% (inactive)

(Q) Request the reported growth associated with "O=C(/C=C/c1ccc2ccccc2c1)Nc1ncc(Cc2ccccc2)s1"
(A) 25.8% (inactive)

(Q) Request the reported growth associated with "COc1ccc(/C=C(\C#N)c2cc3ccccc3n2S(C)(=O)=O)cc1"
(A) 96.8% (inactive)

(Q) Request the reported growth associated with "COc1ccc(-n2c(/C=C/c3ccc(O)c(OC)c3)cc(/C=C/c3ccc(O)c(OC)c3)nc2=O)cc1"
(A) 32.4% (inactive)

(Q) Request the reported growth associated with "CN(C)c1cccc2[nH]c(-c3[nH]ncc3Nc3ccnc(N)n3)nc12"
(A) -50.1% (active)

(Q) Request the reported growth associated with "COc1cc(-c2cc3ncccc3c3[nH]c(=O)c4cccnc4c23)cc(OC)c1OC"
(A) 16.8% (inactive)

(Q) Request the reported growth associated with c1ccc(C2Cc3ccccc3C2=NC2CCCCC2)cc1 (stereo unspecified)
(A) 97.9% (inactive)

(Q) Request the reported growth associated with "Cn1c2c(Cl)c(Cl)ccc2c2c(C#N)c[nH]c(=O)c21"
(A) 101% (inactive)

(Q) Request the reported growth associated with "NC1(N)C=CC2=C(C=C1)C1(N)C3=C(C=CC(N)(N)C=C3)N2C2(N)C3=C(C=CC(N)(N)C=C3)N1C1=C2C=CC(N)(N)C=C1"
(A) 83.3% (inactive)

(Q) Request the reported growth associated with "COCCNC1=C(Cl)C(=O)c2ccccc2C1=O"
(A) 91.3% (inactive)

(Q) Request the reported growth associated with "c1ccc2[nH]c(-c3cc(-c4ccc5c(c4)OCO5)n[nH]3)nc2c1"
(A) 36.6% (inactive)

(Q) Request the reported growth associated with "O=C(/C(=C(\C(=O)c1ccccc1)c1ccccc1)c1ccccc1)c1ccccc1"
(A) 47.3% (inactive)

(Q) Request the reported growth associated with "CCCCC[C@H]1CC=C2C(=O)C(Cl)=C[C@@H]2CC=CCCCC(=O)O[C@@H](CCCCC)CC=C2C(=O)C(Cl)=C[C@@H]2CC=CCCCC(=O)O[C@@H](CCCCC)CC=C2C(=O)C(Cl)=C[C@@H]2CC=CCCCC(=O)O1"
(A) 35.2% [8 µM] (inactive)

(Q) Request the reported growth associated with CC(Cc1ccco1)C(=O)NC(N)=O (stereo unspecified)
(A) 108% (inactive)

(Q) Request the reported growth associated with "N=C(N)N=Nc1ccc(O)cc1"
(A) 40.5% [100 µM] (inactive)

(Q) Request the reported growth associated with "CC1(C)C(=O)CC[C@]2(C)[C@H]3C(=O)C=C4[C@@H]5C[C@@](C)(C(=O)NCCNCCN)CC[C@]5(C)CC[C@@]4(C)[C@]3(C)CC[C@@H]12"
(A) 88.3% (inactive)

(Q) Request the reported growth associated with "COc1cc2nc(Cl)nc(Nc3cccc(C(=O)/C=C/c4ccccc4)c3)c2cc1OC"
(A) 21.4% (inactive)

(Q) Request the reported growth associated with "Clc1cc(Cl)cc(Nc2ccc3c(OCCCN4CCOCC4)cccc3n2)c1"
(A) 29.1% (inactive)

(Q) Request the reported growth associated with "Fc1ccc(Nc2nnc(-c3ccc(Cl)cc3)o2)cc1"
(A) 92.1% (inactive)

(Q) Request the reported growth associated with "Cc1ccc(N(CC(=O)Nc2ccc(S(=O)(=O)NC3CCN(C)CC3)cc2)S(=O)(=O)c2ccc(Cl)cc2)cc1"
(A) 19.5% (inactive)

(Q) Request the reported growth associated with "N#CCCCCCn1c2ccccc2c2c3c(c4c5ccccc5n(CCCCCC#N)c4c21)C(=O)N(O)C3=O"
(A) 83.8% (inactive)
